Data credit: ChEMBL document CHEMBL1201862

Tested on: OVCAR-8
Experiment Summary: NCI tumour cell line growth inhibition, 48 h
Calls of active or inactive are those of the source. No stated cut-off is given here; in the data, active = GI50 up to about 1.1 µM and inactive = higher.
Outcome codes: active, inactive

Compound: COc1ccc2c(c1)c(=O)c1c(NCCCN(C)C)ccc3ncn2c31
Assigned Label: active

Compound: COC(=O)C1=C(C)NC(C)=C(C(=O)OC)C1c1ccc(N=O)cc1
Assigned Label: inactive

Compound: CSc1n/c(=N\c2ccccc2)sn1-c1ccccc1
Assigned Label: inactive

Compound: N#C[BH2-][n+]1cn(C2CC(O)C(COP(=O)(O)OC3CC(n4ccc(N)nc4=O)OC3CO)O2)c2nc(N)[nH]c(=O)c21 (stereo not given)
Assigned Label: inactive

Compound: O=C1/C(=C/c2ccncc2)C(n2cccc2)c2c(Br)sc(Br)c21 (stereo not given)
Assigned Label: inactive

====

Tested on: SF-295
Experiment Summary: NCI tumour cell line growth inhibition, 48 h
The source made the active and inactive calls. Cut-off read from the data, not from the text of the source: active = GI50 up to about 1.1 µM and inactive = higher.
// reported GI50 for each item listed

Molecule: N#Cc1ccc(C2OCC3CC=CCC3CO2)cc1 (stereo not drawn)
GI50: 48.1 µM (inactive)
//
Molecule: C[S+](C)CC(=O)c1ccc2c(c1)Sc1ccccc1O2
GI50: 5.25 µM (inactive)
//
Molecule: CCOC(=O)c1cccn1S(=O)(=O)c1cc(Cl)ccc1NC(=O)CC
GI50: 35.2 µM (inactive)

====

Test system: SNB-75
Experiment Summary: NCI tumour cell line growth inhibition, 48 h
The source made the active and inactive calls. Cut-off read from the data, not from the text of the source: active = GI50 up to about 1.1 µM and inactive = higher.
Outcome codes: t for active, f for inactive

Compound: OCCN(C1=NCCN1)/[N+](=C\c1ccccn1)[CH-]c1ccccn1
Assigned Label: f

Compound: COc1ccccc1NC(=O)CC(=O)n1nc(-c2ccccc2)c(/N=N/c2ccccc2[N+](=O)[O-])c1-c1ccccc1
Assigned Label: f

Compound: N#C/C(=C\Nc1ccccn1)C(=O)c1ccco1
Assigned Label: f

Compound: Cn1nc2ccc([N+](=O)[O-])c(Cn3nnc4ccccc43)c2n1
Assigned Label: f

Compound: COC1C(O)CC(OC2CC(Oc3cc4cc5c(c(O)c4c(O)c3C)C(=O)[C@@H](OC3CC(OC4CC(OC6CC(C)(O)C(OC(C)=O)C(C)O6)C(O)C(C)O4)C(O)C(C)O3)[C@H]([C@H](OC)C(=O)[C@@H](O)[C@@H](C)O)C5)OC(C)C2OC(C)=O)OC1C (stereo partly specified) [CHROMOMYCIN]
Assigned Label: t

Compound: Cc1[nH]c(-c2ccccc2)c(O)c1C(=O)OC12CC3CC(CC(C3)C1)C2
Assigned Label: f

====

Test system: SF-295
Experiment Summary: NCI tumour cell line growth inhibition, 48 h
The source made the active and inactive calls. Cut-off read from the data, not from the text of the source: active = GI50 up to about 1.1 µM and inactive = higher.

Compound: C1CCN(c2nsc(N3CCCCC3)n2)CC1
Target Or System: SF-295
GI50: > 100 µM (inactive)
--
Compound: O=C(c1ccccn1)C1(N2CCCCC2)CCCCC1
Target Or System: SF-295
GI50: > 100 µM (inactive)
--
Compound: N#CC1(C#N)C2CCCCC23OC(=N)C1(C#N)C(c1ccco1)O3 (centres undefined)
Target Or System: SF-295
GI50: > 100 µM (inactive)
--
Compound: COC(=O)CC(=O)NCC1=CCC(=O)CC1
Target Or System: SF-295
GI50: > 100 µM (inactive)

====

Test system: K562
Experiment Summary: NCI tumour cell line growth inhibition, 48 h
Activity calls are given as the source filed them. No stated cut-off is given here; in the data, active = GI50 up to about 1.1 µM and inactive = higher.
Outcome codes: active, inactive

Compound: Nc1nc(Sc2ccc([N+](=O)[O-])c3nonc23)c2nc[nH]c2n1
Assigned Label: active

Compound: COc1cc(S(=O)(=O)Nc2ccc(-c3csc(N)n3)cc2)ccc1Cl
Assigned Label: inactive

Compound: C[n+]1c2ccccc2c(C(=O)NC(CCCNC(=N)N)C(=O)O)c2ccccc21 (configuration not stated)
Assigned Label: inactive

Compound: Cc1nnc(N)nc1/C=C\c1cccs1
Assigned Label: inactive

Compound: CS/C(c1ccccc1)=[N+](\[O-])Cc1ccccc1
Assigned Label: inactive

Compound: Nc1nc(-c2ccccc2)cc(-c2cc(Cl)ccc2O)n1
Assigned Label: inactive

Compound: C/C(CC(O)(C(F)(F)Cl)C(F)(F)Cl)=N\Nc1ccccc1
Assigned Label: inactive

Compound: COc1ccc(NC(=O)/C(=N/NC(N)=S)C2C(=O)NC(=S)NC2=O)c(OC)c1
Assigned Label: inactive

Compound: CC1=CC(=O)CCC2(C)C1CC[C@@H]2OC=O (some centres not stated)
Assigned Label: inactive

Compound: Cc1cn(C2CC3C(COCN3O)O2)c(=O)[nH]c1=O (configuration not stated)
Assigned Label: inactive

Compound: Cc1ccc(S(=O)(=O)n2c3c(c4ccccc42)CCN2CCC(Br)C[C@@H]32)cc1 (some centres not stated)
Assigned Label: inactive

Compound: CO[C@@H]1C[C@H]2[C@@H]3CC[C@H]([C@@H](C)COC(C)=O)[C@@]3(C)CC[C@@H]2[C@@]2(C)CC[C@H]3C[C@]312
Assigned Label: inactive

Compound: CC1OC(OC2C(OC(=O)[C@]34CCC(C)(C)CC3C3=CCC5[C@@]6(C)C[C@H](O)[C@H](OC7OC(CO)C(O)C(O)C7N)[C@@](C)(C(=O)O)C6CC[C@@]5(C)C3(C)CC4)OCC(O)C2O)C(O)C(O)C1OC1OCC(O)C(O)C1O (some centres not stated)
Assigned Label: inactive

Compound: Clc1nss/c1=N/c1nonc1-c1ccccc1
Assigned Label: inactive

Compound: CN(C)/C=N/[C@@H](C(=O)O)c1ccccc1
Assigned Label: inactive

Compound: C[C@@]1(Br)C[C@@](C)(Cl)[C@@H](Br)CC1/C=C/Cl (some centres not stated)
Assigned Label: inactive

Compound: CCn1c(=O)c2c(=O)[nH][nH]c2c2ccccc21
Assigned Label: inactive

Compound: Nc1ccc(COC(O)CN2CCCCC2)cc1[N+](=O)[O-] (configuration not stated)
Assigned Label: inactive

Compound: CC(C)OC(=O)NNc1c(Cl)cc(Cl)cc1Cl
Assigned Label: inactive

Compound: COc1ccc(CCCN2c3ccccc3Sc3ccccc32)cc1
Assigned Label: inactive

Compound: COc1cccc2c1C(=O)OC2c1cccc2ccccc12 (configuration not stated)
Assigned Label: inactive

Compound: O=c1[nH]nc(-c2ccccc2)n1/N=C/c1cccc([N+](=O)[O-])c1
Assigned Label: inactive

Compound: Nc1ccn(C2OC(COP(=O)(O)OCC3OC(n4cc(F)c(=O)[nH]c4=O)CC3O)C(O)C2O)c(=O)n1 (configuration not stated)
Assigned Label: inactive

Compound: O=C(O)C1CCc2ccc3ccccc3c2C1c1cccc2ccccc12 (configuration not stated)
Assigned Label: inactive

Compound: C=CCCC1CCCCC/C1=N\N(C)C (configuration not stated)
Assigned Label: inactive

Compound: COC(=O)C1Cc2cc3c(cc2C1=O)CCCC3 (configuration not stated)
Assigned Label: inactive

Compound: CCOC(=O)/C(C#N)=N\Nc1ccc(-n2c(C)nc3ccccc3c2=O)cc1
Assigned Label: inactive

Compound: Nc1ccc(S(=O)(=O)NCCS(=O)(=O)O)cc1
Assigned Label: inactive

Compound: Cc1cccc2cc3ccc4ccccc4c3cc12
Assigned Label: inactive

Compound: CC(NC1=NCCO1)c1cccc([N+](=O)[O-])c1 (configuration not stated)
Assigned Label: inactive

Compound: CCc1c(O)c(O)c(C(C)=O)c2c(O)c(-c3c(C)cc4c(CC)c(O)c(O)c(C(C)=O)c4c3O)c(C)cc12
Assigned Label: inactive

Compound: O=c1[nH]nc(Cc2ccccc2)n1/N=C/c1c(O)ccc2ccccc12
Assigned Label: inactive
